measure name: MDR1-MDCK efflux ratio

Cn1cc(C(=O)O)c(C2CCCCC2)n1 : 1.04
Cc1ccc(-c2cn(CC3CCN(Cc4c[nH]c(C)n4)CC3)nn2)cc1 : 23.3
CS(=O)(=O)N1CC(c2n[nH]c3ncccc23)C1 : 1.41
CNC(=O)CN(C)c1cccc(F)c1C#N : 0.738
COCC1CCN(c2noc(-c3cccs3)n2)CC1 : 0.541
CCC1(O)CN(c2ncnc3c2c(Br)nn3C)C1 : 0.85
O=C(CN1CCCN(c2ccc(C(F)(F)F)cn2)CC1)Nc1ccccc1Cl : 1.03
N#CC1(NC(=O)CN2CCOCC2)CCCCCC1 : 2.14
Nc1nc(N)c2c(Cl)c(Br)ccc2n1 : 0.574
COC(=O)CCCNC(=O)CN1CCC(C(=O)c2ccc(C)cc2C)CC1 : 3.29

[P] CCCC(=O)Nc1ccc(C(=O)N(C)C)cc1
[Q] CC(=O)NCCCC(=O)Nc1ccc(Oc2ccccc2Cl)cc1
Q) Please choose the item with the lower MDR1-MDCK efflux ratio value from this pair: P and Q To answer, give the label that identifies your chosen option.
A) P

[a] Cc1cccc2sc(NC(=O)c3cccnc3)nc12
[b] CCCC(=O)NCC(=O)Nc1cnc(N2CCN(C)CC2)nc1
Q) Please choose the item with the lower MDR1-MDCK efflux ratio value from this pair: a and b To answer, give the label that identifies your chosen option.
A) a

###

measure name: intrinsic clearance, human liver microsomes (mL/min/kg)

[I] Cc1cccc([C@H]2CN(C(=O)C3CCCC3)[C@@H]3CCN(CC4CC4)C[C@H]23)c1
[II] OCCN1CCN(c2ccnc3ccc(Br)cc23)CC1
[III] COc1ccc(Cc2noc(-c3cccc4c3OCC(=O)N4)n2)cc1
Q) Lab note: arrange the 3 molecules above from lowest to highest intrinsic clearance, human liver microsomes. A ranking is expressed here by listing the labels in the requested order.
A) II, III, I

###

measure name: intrinsic clearance, human liver microsomes

Solved cases (4 shown):
CC1(C)O[C@@](C)([C@H]2CC3(CCNCC3)CO2)CC[C@@H]1O : ≤ 4.74 mL/min/kg
COc1ccc(-c2nnc(-c3ccccc3)o2)cc1OC : 49.4 mL/min/kg
CN(C)Cc1csc(-c2nccn2-c2ccc3c(c2)n(C)c(=O)n3C)c1 : ≤ 4.74 mL/min/kg
CCCc1ncncc1C(=O)NCc1nncn1CCC : ≤ 4.74 mL/min/kg

Let us examine a further case.
Q) Look up intrinsic clearance, human liver microsomes: "CCc1nc(C)cc(N2CCCC3(CCNCC3)CC2)n1"
A) ≤ 4.74 mL/min/kg

###

measure name: intrinsic clearance, rat liver microsomes

Q) Look up intrinsic clearance, rat liver microsomes: "O=c1c2c(Cl)ccc(Cl)c2ncn1Cc1cc(O)ncn1"
A) ≤ 10.7 mL/min/kg

Q) Look up intrinsic clearance, rat liver microsomes: "Cc1ccc(Oc2ccc(N)cc2)nn1"
A) ≤ 10.7 mL/min/kg

Q) Look up intrinsic clearance, rat liver microsomes: "Cc1cc(F)ccc1NC(=O)Cn1cncn1"
A) ≤ 10.7 mL/min/kg

###

measure name: intrinsic clearance, human liver microsomes (mL/min/kg)

Cn1cc(CCNC(=O)N2CCCc3c(F)cccc32)cn1 : 25.2

[P] CCOC(=O)Cc1c(C)[nH]c2c(-c3ccccc3)cnn2c1=O
[Q] CCCS(=O)(=O)NC1CCN(Cc2ccc(C)c(OC)c2)CC1
Q) Please choose the item with the lower intrinsic clearance, human liver microsomes value from this pair: P and Q To answer, give the label that identifies your chosen option.
A) P
(P: 6.21 mL/min/kg, Q: 16.5 mL/min/kg)
